# tested_target: protein tyrosine phosphatase 1B (PTP1B) (Homo sapiens, UniProt P18031)
# Sequence (P18031 1-435): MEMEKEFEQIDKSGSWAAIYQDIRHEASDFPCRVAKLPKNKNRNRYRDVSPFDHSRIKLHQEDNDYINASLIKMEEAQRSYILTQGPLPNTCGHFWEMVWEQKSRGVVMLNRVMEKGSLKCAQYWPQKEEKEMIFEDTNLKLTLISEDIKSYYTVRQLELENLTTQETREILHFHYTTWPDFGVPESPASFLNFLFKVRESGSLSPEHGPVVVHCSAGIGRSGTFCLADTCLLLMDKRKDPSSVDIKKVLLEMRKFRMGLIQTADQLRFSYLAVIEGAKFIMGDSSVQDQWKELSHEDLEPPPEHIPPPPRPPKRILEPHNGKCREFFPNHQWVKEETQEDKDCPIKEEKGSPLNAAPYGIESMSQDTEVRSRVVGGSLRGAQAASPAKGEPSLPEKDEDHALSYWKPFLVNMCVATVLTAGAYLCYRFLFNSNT
property_name: pIC50
One number for each entry, as −log10 of the molar value.

Any idea what pIC50 was measured for C=C/C(C)=C\CCC(C)Cc1cc(C(=O)O)co1 (stereo not shown) ?
5.91
